- Test system: COLO 205 colon
- PROTOCOL TEXT: NCI tumour cell line growth inhibition, 48 h
PROPERTY MEASURED: TGI (µM)
Give just the number in µM; leave the unit off.

- COMPOUND: "CN(C)Cc1cc(C(=O)/C=C/c2c(Cl)cccc2Cl)cc(CN(C)C)c1O"
  PROPERTY MEASURED: "TGI"
  READOUT NUMBER: 7.66

Which TGI is listed for "CCC[CH2][Sn]([CH2]CCC)([O]C(=O)c1cccc(F)c1F)[O][Sn]([CH2]CCC)([CH2]CCC)[O]C(=O)c1cccc(F)c1F" ? 0.969

Which TGI is listed for COc1c(C(CC(C)C)OC(C)=O)ccc2c1C(=O)OCc1cc(C)cc(O)c1O2 (stereo unspecified) ? 31.8

Which TGI is listed for CC(=O)C1=C(O)C2(O)C(=O)c3c(c(C)c4ccc(C)c(O)c4c3O)CC2C(N)C1=O (stereo unspecified) ? 3.34

Which TGI is listed for O=C1OC(c2ccccc2)(c2ccccc2)CC1CN1CCOCC1 (stereo unspecified) ? 18.4

Which TGI is listed for "C=C1C(=O)O[C@H]2[C@H]1CC/C(Cn1cc(Cn3ccc4cc(Cl)ccc43)nn1)=C\CC[C@@]1(C)O[C@@H]21" ? 3.5

Which TGI is listed for CCOC(=O)c1c(-c2ccc(Cl)cc2)c(C#N)c(=S)n(C2OC(CO)C(O)C(O)C2O)c1-c1ccccc1 (stereo unspecified) ? 80.9

Which TGI is listed for "CCN(CC)CCN1CCN=c2c3cc(OC)ccc3n3cnc4ccc1c2c43" ? 2.6

Which TGI is listed for "COc1cc(N)ccc1Nc1c2ccccc2nc2ccccc12" ? 18.4

Which TGI is listed for "Cc1c2c(cc3c1[nH]c1ccccc13)C(c1ccc(F)cc1)=NCC2" ? 2.15

Which TGI is listed for "C=C1C(=O)O[C@H]2[C@H]1CC/C(COC(=O)NCCc1c[nH]c3ccccc13)=C\CC[C@@]1(C)O[C@@H]21" ? 3.09

Which TGI is listed for "N#C/C(=C\c1ccc(Cl)cc1)n1nnc2cc(F)c(F)cc21" ? 4.83

Which TGI is listed for "COc1ccc2cc(CNCCCN3CCN(CCCNCc4ccc5cc(OC)ccc5c4)CC3)ccc2c1" ? 2.83

----------
Recorded TGI values for a group of molecules are listed next.
- Test system: IGROV1 ovarian
- PROTOCOL TEXT: NCI tumour cell line growth inhibition, 48 h

Solved cases below.
- MOLECULE: "O=C1CC(n2cccc2)c2cc(Br)sc21 (stereo not drawn)"
  TGI: "> 100 µM"
- MOLECULE: "O=C1OC(c2ccccc2)(c2ccccc2)CC1CN1CCOCC1 (stereo not drawn)"
  TGI: "> 100 µM"
- MOLECULE: "O=C1CCC(NC(=O)Cc2ccc(O)cc2)C(=O)N1 (stereo not drawn)"
  TGI: "> 2500 µM"
- MOLECULE: "OCC1OC(O)C(N=Cc2ccc3c(c2)OCO3)C(O)C1O (stereo not drawn)"
  TGI: "> 100 µM"

Which TGI is listed for CCC12CC[C@H](C#N)N3CCc4c(n(c5ccccc45)C(=O)C1)C32 (stereo partly drawn) ? 63.3 µM

Which TGI is listed for "C=C1C(=O)O[C@H]2[C@H]1CC/C(Cn1cc(Cn3ccc4cc(Cl)ccc43)nn1)=C\CC[C@@]1(C)O[C@@H]21" ? 2.9 µM

Which TGI is listed for c1ccc2c(OCC3CO3)ccc(OCC3CO3)c2c1 (stereo not drawn) ? 16 µM

Which TGI is listed for COCC1OCCN1C (stereo not drawn) ? > 100 µM
